Tested on: Mythimna separata
Test: Larvicidal activity against fourth-instar larval stage of Mythimna separata (Oriental armyworm) in compound-pretreated corn leaves assessed as mortality at 5 mg/kg at 25 +/-1 degC measured after 4 days
Type: functional
recordedMetric: mortality at 5 mg/kg (%)
Answers are plain numbers, in %.

Known mortality at 5 mg/kg results, listed for orientation:
Ask: Missing value: mortality at 5 mg/kg, Mythimna separata, entry Cc1cc(C)cc(C(=O)N(NC(=O)c2ccc3c(c2C)OC(C)C3)C(C)(C)C)c1 (stereo unspecified) . Fill in?
Reply: 100

Ask: Continue with `CCc1ccc(CN(SNc2ccc(Cl)cc2)N(C(=O)c2cc(C)cc(C)c2)C(C)(C)C)cc1`
Reply: 80

Ask: Continue with CCCCSSN(C(=O)c1ccc2c(c1C)OC(C)C2)N(C(=O)c1cc(C)cc(C)c1)C(C)(C)C (stereo unspecified)
Reply: 100

Would you mind giving mortality at 5 mg/kg for every compound in the list below?
1. CCc1ccc(C(=O)NN(C(=O)c2cc(C)cc(C)c2)C(C)(C)C)cc1 [TEBUFENOZIDE]
2. CCCSSN(C(=O)c1ccc2c(c1C)OC(C)C2)N(C(=O)c1cc(C)cc(C)c1)C(C)(C)C (stereo unspecified)

Reply:
[95, 100]

Ask: Missing value: mortality at 5 mg/kg, Mythimna separata, entry `CCCCSSN(C(=O)c1ccc(Cl)cc1)N(C(=O)c1ccccc1)C(C)(C)C` . Fill in?
Reply: 30
